# measured.on: T1, Human CD33 full length, expressed on HEK293F cells (human, UniProt P20138 18-364)
# T1 construct: HEK293F cells transduced with lentivirus containing full length human CD33; also called huCD33
# test.name: flow cytometry, HEK293F cells expressing human CD33
property: MFI at 0.6 nM mAb (MFI)
One number for each entry, in MFI.

INSERT INTO measurements (binder, property, quantitative_readout) VALUES
  ('C33B124 (antibody, IgG1, V domains shown, huIgG1 F405L; also called C33F129; C33H73/C33L32) VH: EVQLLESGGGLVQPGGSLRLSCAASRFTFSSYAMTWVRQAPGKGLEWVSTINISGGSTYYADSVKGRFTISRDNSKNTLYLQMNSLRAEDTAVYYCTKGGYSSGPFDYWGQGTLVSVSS VL: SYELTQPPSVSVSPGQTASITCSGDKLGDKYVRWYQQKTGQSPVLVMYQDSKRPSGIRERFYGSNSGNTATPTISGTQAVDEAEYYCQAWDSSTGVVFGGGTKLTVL', 'MFI at 0.6 nM mAb', 90.3),
  ('C33B79 (antibody, IgG1, V domains shown, huIgG1 F405L; also called C33F84; C33H74/C33L38) VH: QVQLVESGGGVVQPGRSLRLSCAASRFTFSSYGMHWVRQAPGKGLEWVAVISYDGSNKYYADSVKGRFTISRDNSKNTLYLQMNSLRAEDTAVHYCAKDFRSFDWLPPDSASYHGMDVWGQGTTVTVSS VL: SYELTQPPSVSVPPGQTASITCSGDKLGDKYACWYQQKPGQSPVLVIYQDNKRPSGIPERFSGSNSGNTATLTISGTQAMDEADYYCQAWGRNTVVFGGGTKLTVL', 'MFI at 0.6 nM mAb', 4990);

Shift focus to the following entry.
// query Which MFI at 0.6 nM mAb is reported for this binder? C33B82 (antibody, IgG1, V domains shown, huIgG1 F405L; also called C33F87; C33H78/C33L57) VH: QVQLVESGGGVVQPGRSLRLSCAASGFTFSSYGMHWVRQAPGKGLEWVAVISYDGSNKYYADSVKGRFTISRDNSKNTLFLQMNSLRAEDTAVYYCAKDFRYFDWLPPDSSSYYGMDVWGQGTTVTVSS VL: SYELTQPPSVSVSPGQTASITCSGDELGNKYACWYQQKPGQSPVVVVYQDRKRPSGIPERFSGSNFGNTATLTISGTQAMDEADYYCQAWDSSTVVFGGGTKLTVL
// result 5030
